Test system: Hek293T
test description: Primary qHTS to identify gynecologic anti-cancer compounds using libraries of approved drugs and bioactive compounds (AID 1345084); further: on the % scale 0 is the no-effect control and ±100 the full control effect; nearly all actives have a fitted effect of over 55% in size
particulars: Gynecologic cancer cell panel viability, ATPlite luminescence, 48 h, control line for the selectivity index; series mostly up to 57.5 µM
Text: National Center for Advancing Translational Sciences [NCATS] Assay Overview: Chemotherapeutic drug responses vary from cancer to cancer and from patient to patient. […] ATPlite is a luminescence based assay reliant on the conversion of a luciferase substrate to light in the presence of ATP. As a cytotoxic compound will suppress growth and decrease the number of cells, the concentration of ATP will decrease, and less light signal will be detected in the well. […]
Records with an inconclusive call do not appear. Calls of active or inactive are those of the source. The call rests on the fitted dose curve; in most records, active means well fitted cell-killing curve with a large enough effect; inconclusive means small, poorly fitted or top-dose-only effect, or effect the other way; inactive means flat fitted curve, though single readings scatter. Where a SMILES comes first, the peptide text is derived from it.

{"molecule": "COc1cc(Cc2cnc(N)nc2N)c(C(C)C)cc1OC", "target under test": "Hek293T", "activity change, negative = cytotoxicity": "inactive"}
{"molecule": "CC(=O)NC(Cc1ccccc1)C(=O)NC(C(=O)O)C(C)C (stereo not drawn) (Ac-Phe-Val-OH; configuration not given here)", "target under test": "Hek293T", "activity change, negative = cytotoxicity": "inactive"}
{"molecule": "C[C@@H]1O[C@@H](O[C@H]2[C@H](OC(=O)[C@]34CCC(C)(C)C[C@H]3C3=CCC5[C@@]6(C)CC[C@H](O[C@@H]7O[C@H](CO[C@@H]8OC[C@H](O)[C@H](O)[C@H]8O[C@@H]8OC[C@@H](O)[C@H](O)[C@H]8O)[C@@H](O)[C@H](O)[C@H]7O)C(C)(C)C6CC[C@@]5(C)[C@]3(C)C[C@H]4O)O[C@H](CO)[C@@H](O)[C@@H]2O)[C@H](O[C@@H]2O[C@H](CO)[C@@H](O)[C@H](O)[C@H]2O)[C@H](O)[C@H]1O[C@@H]1OC[C@@H](O)[C@H](O[C@@H]2OC[C@@H](O)[C@H](O)[C@H]2O)[C@H]1O (stereo not given in full)", "target under test": "Hek293T", "activity change, negative = cytotoxicity": "6.55% [at 6.55 µM] (inactive)"}
{"molecule": "COC(=O)C(Cc1ccccc1)NC(=O)c1ccccc1 (stereo not given)", "target under test": "Hek293T", "activity change, negative = cytotoxicity": "inactive"}
{"molecule": "COc1cccc(C(=O)NCCNc2nc3cc(C)cc(C)c3cc2C#N)c1", "target under test": "Hek293T", "activity change, negative = cytotoxicity": "inactive"}

* * *

test description: Primary qHTS for inhibitors of nuclear receptor binding SET domain protein 2 (NSD2) in an isogenic RCH-ACV NSD2 p.E1099K mutant (9B) (AID 1645876); further: on the % scale 0 is the no-effect control and ±100 the full control effect; nearly all actives have a fitted effect of over 70% in size
particulars: RCH-ACV (leukaemia line) NSD2 E1099K (9B) viability, CellTiter-Glo, 72 h; series mostly up to 44.9 µM
Records with an inconclusive call do not appear. Calls of active or inactive are those of the source. Calls come from the whole dose curve; as a rule, active = well fitted inhibition curve with a large enough effect; inconclusive = small, poorly fitted or top-dose-only effect; inactive = flat fitted curve, though single readings scatter.
measured attribute: activity change, negative = viability loss

{"molecule": "CC1CC2OCC3(O)CCC(O)C(C14CC(c1ccoc1)OC4=O)C23CO (stereo not given)", "result": "inactive"}
{"molecule": "C=CC(C)(O)CC/C=C(\\C)COC1O[C@H](CO)[C@@H](O)[C@H](O)[C@H]1O (stereo not given in full)", "result": "inactive"}
{"molecule": "CC1C2=CC(=O)OC2(O)CC2C1C(O)CC1C(C)(CO)CCCC21C (stereo not given)", "result": "inactive"}
{"molecule": "C[C@@H]1O[C@@H](O[C@@H]2[C@@H](O)[C@H](O[C@@H]3[C@@H](O)[C@@H](O)[C@H](O[C@H]4[C@H](OC(=O)[C@]56CCC(C)(C)C[C@H]5C5=CCC7[C@@]8(C)C[C@H](O)[C@H](O[C@@H]9O[C@H](C(=O)O)[C@@H](O)[C@H](O)[C@H]9O)[C@@](C)(CO)C8[C@H](O)C[C@@]7(C)[C@]5(C)C[C@H]6O)O[C@@H](CO)[C@@H]4O)O[C@H]3C)OC[C@H]2O)[C@H](O)[C@H](O)[C@H]1O (stereo not given in full)", "result": "-3.74% [at 9.23 µM] (inactive)"}
{"molecule": "C[C@H]1[C@H](C)CC[C@]2(C(=O)O)CC[C@]3(C(=O)O)C(=CCC4[C@@]5(C)CC[C@H](O[C@@H]6O[C@@H](C)[C@H](O)[C@@H](O)[C@H]6O)C(C)(C)C5CC[C@]43C)[C@H]12 (stereo not given in full)", "result": "inactive"}

* * *

System: CASKI
test description: Primary qHTS to identify gynecologic anti-cancer compounds using libraries of approved drugs and bioactive compounds (AID 1345084); further: on the % scale 0 is the no-effect control and ±100 the full control effect; nearly all actives have a fitted effect of over 55% in size
particulars: Gynecologic cancer cell panel viability, ATPlite luminescence, 48 h; series mostly up to 57.5 µM
Inconclusive results are not listed. Calls of active or inactive are those of the source. Calls follow the shape of the dose curve; as a rule, active = well fitted cell-killing curve with a large enough effect; inconclusive = small, poorly fitted or top-dose-only effect, or effect the other way; inactive = flat fitted curve, though single readings scatter.

{"molecule": "C/C=C(/C)C(=O)OC1C(OC(C)=O)C23C(O)OC4(CCC5C6(C)CCC(OC7OC(C(=O)O)C(O)C(OC8OC(CO)C(O)C(O)C8OC8OC(C)C(O)C(O)C8OC8OCC(O)C(O)C8O)C7OC7OC(CO)C(O)C(O)C7O)C(C)(C)C6CCC5(C)C4(C)CC2OC(C)=O)C3CC1(C)C (centres undefined)", "activity change, negative = cytotoxicity": "1.53% [at 6.55 µM] (inactive)"}
{"molecule": "Cc1ccc2[nH]c(=O)c(C3=NN(C(=O)CCC(=O)O)C(c4ccc(Br)cc4)C3)c(-c3ccccc3)c2c1 (centres undefined)", "activity change, negative = cytotoxicity": "inactive"}
{"molecule": "CN[C@H](CNC(=O)N1CCC[C@@H]([C@@H](OCCNC(=O)OC)c2cccc(Cl)c2)C1)C[C@H]1CCCOC1", "activity change, negative = cytotoxicity": "inactive"}
{"molecule": "C[C@@H]1O[C@@H](O[C@H]2[C@H](O)[C@@H](O[C@@H]3O[C@H](CO)[C@H](O)[C@H](O)[C@H]3O)[C@H](O[C@H]3CC[C@@]4(C)C(CC[C@]5(C)C4CC=C4[C@@H]6CC(C)(C)CC[C@]6(C(=O)O[C@@H]6O[C@H](CO)[C@@H](O)[C@H](O)[C@H]6O)CC[C@]45C)C3(C)C)O[C@@H]2C(=O)O)[C@H](O)[C@H](O)[C@H]1O (some centres undefined)", "activity change, negative = cytotoxicity": "-5.82% [at 11.6 µM] (inactive)"}
{"molecule": "CC(NC(=O)c1ccccc1N)C(=O)O (centres undefined)", "activity change, negative = cytotoxicity": "inactive"}
{"molecule": "COc1cc(/C=C/C(=O)O[C@@H]2C[C@@](O)(C(=O)O)C[C@@H](O)[C@@H]2O)ccc1O", "activity change, negative = cytotoxicity": "inactive"}
{"molecule": "NC[C@@H]1O[C@@H](O[C@@H]2[C@@H](O[C@@H]3O[C@H](CO)[C@@H](O)[C@H]3O)[C@H](O)[C@@H](N)C[C@H]2N)[C@@H](N)[C@H](O)[C@H]1O", "activity change, negative = cytotoxicity": "0.509% [at 11.6 µM] (inactive)"}
{"molecule": "C=C1CC[C@]2(C(=O)O[C@@H]3O[C@H](CO)[C@@H](O)[C@H](O)[C@H]3O)CC[C@]3(C)C(=CCC4[C@@]5(C)C[C@H](O)[C@@H](O[C@@H]6O[C@H](C(=O)O)[C@@H](O)[C@H](O)[C@H]6O)[C@](C)(C=O)C5CC[C@]43C)C2C1 (some centres undefined)", "activity change, negative = cytotoxicity": "-3.95% [at 11.6 µM] (inactive)"}
{"molecule": "COC(=O)C1=COC(OC2OC(CO)C(O)C(O)C2O)C2C(COC(=O)/C=C/c3ccc(O)c(O)c3)C(O)C(O)C12 (centres undefined)", "activity change, negative = cytotoxicity": "inactive"}

* * *

Tested on: HEK293
test description: Cytotoxic Profiling of Annotated Libraries Using Quantitative High-Throughput Screening (AID 1296008); further: on the % scale 0 is the no-effect control and ±100 the full control effect; nearly all actives have a fitted effect of over 60% in size
particulars: Five cell lines viability, CellTiter-Glo ATP luminescence, 48-72 h; hits give low values
Method: Cell-based phenotypic screening is a commonly used approach to discover biological pathways, novel drug targets, chemical probes and high-quality hit-to-lead molecules. […] A pintool (Kalypsys) was used to transfer 23 nL of compound solution to the 1536-well assay plates. […] Plates were left at room temperature for 10 min before imaging the ATP-coupled luminescence using a ViewLux microplate imager (PerkinElmer, Waltham, MA).
Records with an inconclusive call do not appear. Where a SMILES comes first, the peptide text is derived from it.
Measured max response of individual entries

{"compound": "CC(C)c1c(NC(=O)Nc2ccc(Cl)cc2)c(=O)n(-c2ccccc2)n1C", "max response / %": -5.54}
{"compound": "CCc1nnc(NS(=O)(=O)c2ccc(NC(=S)NC(=O)/C=C/c3ccc(F)cc3)cc2)s1", "max response / %": -0.631}
{"compound": "Cc1ccc(Nc2nnc(-c3ccc([N+](=O)[O-])cc3)o2)cc1Cl", "max response / %": -16.7}
{"compound": "O=C(OCc1ccccc1O[C@@H]1O[C@H](CO)[C@@H](O)[C@H](O)[C@H]1O)C1(O)C=CCCC1O (stereo partly drawn)", "max response / %": 2.2}
{"compound": "Cc1cc(C(=O)N2Cc3cnn(C)c3Nc3ccccc32)ccc1CNC(=O)N1CCN(Cc2cc(O)cc(O)c2)CC1", "max response / %": -0.745}
{"compound": "CC(=O)OC1C(C)C2C(OC3OC(CO)C(O)C(O)C3O)OC=C(C(=O)O)C2C1OC(=O)c1ccccc1 (stereo not drawn)", "max response / %": 1.6}
{"compound": "C[C@H]1CCN2C[C@]34C[C@@]5(C(=O)Nc6c5ccc5c6OC=CC(C)(C)O5)C(C)(C)C3C[C@]12C(=O)N4C (stereo partly drawn)", "max response / %": -13.2}
{"compound": "C=C1CC2C3(C)C(O)CC(=O)C(C)(C)C3C(O)C(OC(C)=O)C2(C)C2C(=O)OC(C)(C(=O)OC)C(=O)C12C (stereo not drawn)", "max response / %": -2.76}
{"compound": "CC1OC(O[C@@H]2[C@H](O)[C@@H](OC3OC(CO)C(O)C(O)C3O)[C@H](OC(=O)[C@]34CCC(C)(C)C[C@H]3C3=CCC5[C@@]6(C)CC[C@H](O[C@@H]7O[C@H](C(=O)O)[C@@H](O)[C@H](O[C@@H]8OC[C@@H](O)[C@H](O)[C@H]8O)[C@H]7O[C@@H]7O[C@H](CO)[C@H](O)[C@H](O)[C@H]7O)[C@@](C)(C=O)C6CC[C@@]5(C)[C@]3(C)C[C@H]4O)O[C@@H]2C)C(O)C(O)C1OC1OCC(O)C(O)C1O (stereo partly drawn)", "max response / %": -1.1}
{"compound": "CC1(O)CC(O)C2C(C(=O)O)=COC(OC3OC(CO)C(O)C(O)C3OC(=O)/C=C/c3ccc(O)cc3)C21 (stereo not drawn)", "max response / %": 1.1}
{"compound": "Cc1c(F)cc(C(=O)NC2CC2)cc1-c1ccc(C(=O)NCC(C)(C)C)cn1", "max response / %": -4.94}
{"compound": "O=C(/C=C/c1ccccc1)O[C@@H]1[C@@H](CO)O[C@@](CO)(O[C@H]2O[C@H](CO)[C@@H](O)[C@H](O)[C@H]2O)[C@H]1O", "max response / %": 0.967}
{"compound": "N[C@@H](CCNCc1ccc(Cl)cc1)C(=O)N1CCCCC1", "max response / %": 2.57}
{"compound": "O=C(O)C(Cc1ccccc1)NC(=O)C1CCCN1 (stereo not drawn) (H-Pro-Phe-OH; configuration not given here)", "max response / %": 0.403}
{"compound": "CC1=C(CO)CC(C(C)C2CCC3C4CC=C5CC(OC6OC(COC7OC(CO)C(O)C(O)C7O)C(O)C(O)C6O)CC(O)C5(C)C4CCC23C)OC1=O (stereo not drawn)", "max response / %": -8.19}
{"compound": "CC(=O)c1ccc(O[C@@H]2OC[C@@H](O)[C@H](O)[C@H]2O[C@]2(CO)O[C@H](CO)[C@@H](O)[C@@H]2O)c(O)c1", "max response / %": 2.18}
{"compound": "CC(C)C1NC(=O)CNC(=O)C2CCCN2C(=O)C(Cc2c[nH]c3ccccc23)NC(=O)CNC(=O)C(Cc2ccc(O)cc2)NC(=O)CNC1=O (stereo not drawn) (cyclo(GVGYGWP); configuration not given here)", "max response / %": 3.25}
{"compound": "CC(C)/C=C1/NC(=O)C(C(C)C)n2c1nc1c(O)cccc1c2=O (stereo not drawn)", "max response / %": -10.9}
{"compound": "CC1(C)CC[C@]2(C(=O)O)CC[C@]3(C)C(=CCC4[C@@]5(C)C(=O)C[C@H](O)[C@@](C)(CO)C5CC[C@]43C)[C@@H]2C1 (stereo partly drawn)", "max response / %": 3.17}
{"compound": "C=C(COC(=O)CC(C)C)C1Cc2cc(C(C)=O)ccc2O1 (stereo not drawn)", "max response / %": -2.29}
{"compound": "COc1cc(CCCO)ccc1O[C@@H]1O[C@H](CO)[C@@H](O)[C@H](O)[C@H]1O", "max response / %": 0.679}
{"compound": "C[C@@H]1O[C@@H](O[C@H]2[C@H](O[C@H]3[C@H](O[C@H]4CC[C@@]5(C)C(CC[C@]6(C)C5CC=C5[C@@H]7CC(C)(C)C[C@@H](O)[C@]7(C)CC[C@]56C)[C@@]4(C)CO)O[C@H](C(=O)O)[C@@H](O)[C@@H]3O)O[C@H](C(=O)O)[C@H](O)[C@@H]2O)[C@H](O)[C@H](O)[C@H]1O (stereo partly drawn)", "max response / %": -6.47}
{"compound": "Cc1ccc(C)c(NC(=O)CNS(=O)(=O)c2ccc3[nH]c(=O)oc3c2)c1", "max response / %": -17.1}
{"compound": "CC(NC(=O)[C@H](Cc1ccccc1)NC(=O)OCc1ccccc1)C(=O)CF (stereo partly drawn)", "max response / %": -1.18}
{"compound": "C=C1CCC[C@]2(C)CC[C@@](O)(C(=C)C(=O)O)C[C@@H]12", "max response / %": -21.6}
{"compound": "C=C1C(OC(C)=O)CCC2(C)CCC(C(C)(C)O)CC12 (stereo not drawn)", "max response / %": -1.52}
{"compound": "CC/C=C/C(O)C(O)C1=C(C)C(=O)C2(O1)C(=O)NC(OC)(C(=O)c1ccccc1)C2O (stereo not drawn)", "max response / %": 2.1}
{"compound": "C[C@@H]1O[C@@H](O[C@H]2[C@@H]3C=CO[C@@H](O[C@@H]4O[C@H](CO)[C@@H](O)[C@H](O)[C@H]4O)[C@@H]3[C@@]3(CO)O[C@@H]23)[C@H](O)[C@H](O)[C@H]1OC(=O)/C=C/c1ccc(O)cc1", "max response / %": 1.82}
